Entry source: ChEMBL document CHEMBL1921742

I'd appreciate it if you could supply pIC50 values for the items below.
# Target Under Test: Serine/threonine-protein kinase Nek6 (Homo sapiens)
# Sequence (Q9HC98 whole entry): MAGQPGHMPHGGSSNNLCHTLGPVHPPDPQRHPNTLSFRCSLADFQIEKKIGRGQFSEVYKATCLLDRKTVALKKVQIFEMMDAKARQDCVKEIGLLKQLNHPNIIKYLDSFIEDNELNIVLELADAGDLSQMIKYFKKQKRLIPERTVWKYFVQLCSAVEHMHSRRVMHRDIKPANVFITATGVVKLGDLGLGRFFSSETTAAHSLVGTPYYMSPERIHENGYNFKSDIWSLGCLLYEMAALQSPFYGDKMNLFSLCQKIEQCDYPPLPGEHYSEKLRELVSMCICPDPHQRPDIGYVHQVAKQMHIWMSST
# Test: Inhibition of recombinant human NEK6
pIC50: −log10 of the molar value.

| Smiles Structure | pIC50 |
| --- | --- |
| C=C(CC[C@@H](C)[C@H]1CC[C@H]2[C@H](CCc3cc(O)ccc3C)[C@H](O)CC[C@]12C)C(C)C | < 4.00 |
| C=C(CC[C@@H](C)[C@H]1CC[C@H]2[C@H](CCc3cc(O)ccc3C)C(=O)CC[C@]12C)C(C)C | < 4.00 |
| Cc1ccc(O)cc1CC[C@@H]1[C@H](O)CC[C@]2(C)[C@@H]([C@H](C)CCCC(C)C)CC[C@@H]12 | < 4.00 |
| Cc1ccc(O)cc1CC[C@@H]1[C@H](O)CC[C@]2(C)[C@@H]([C@H](C)CCCC(C)C)[C@@H](O)C[C@@H]12 | < 4.00 |

The record that follows has no pIC50 shown yet.
Ask | Identify measured pIC50 associated with `Cc1ccc(O)cc1CC[C@@H]1C(=O)CC[C@]2(C)[C@@H]([C@H](C)/C=C/CC(C)C)CC[C@@H]12`
Reply | < 4.00
